Sourced from patent US12642805B2

MEASUREMENT PROTOCOL: single oral dose pharmacokinetic study in healthy and NASH subjects
Type: in vivo, human
CONDITION INFO: human, plasma, po, 50 mg, 50 mg single oral dose, NASH; read-out: T1/2, Geometric Mean (converted)
ASSAY METRIC: half-life (h)
Just the number please, in h, no unit attached.

Prompt line: Quick one: half-life for C[C@H](CCCC(C)(C)O)[C@H]1CC[C@H]2[C@@H]3CC=C4C[C@@H](OS(=O)(=O)[O-])CC[C@]4(C)[C@H]3CC[C@]12C.[Na+] [25HC3S sodium, 25-hydroxycholesterol-3-sulfate sodium] ?
Response line: 1.67
